target: UniProtKB P08684; assay: Inhibition of CYP3A4 in human liver microsomes using testosterone as substrate preincubated for 10 mins followed by NADPH addition and measured after 15 mins by LC-MS/MS analysis
Sequence (P08684 whole entry): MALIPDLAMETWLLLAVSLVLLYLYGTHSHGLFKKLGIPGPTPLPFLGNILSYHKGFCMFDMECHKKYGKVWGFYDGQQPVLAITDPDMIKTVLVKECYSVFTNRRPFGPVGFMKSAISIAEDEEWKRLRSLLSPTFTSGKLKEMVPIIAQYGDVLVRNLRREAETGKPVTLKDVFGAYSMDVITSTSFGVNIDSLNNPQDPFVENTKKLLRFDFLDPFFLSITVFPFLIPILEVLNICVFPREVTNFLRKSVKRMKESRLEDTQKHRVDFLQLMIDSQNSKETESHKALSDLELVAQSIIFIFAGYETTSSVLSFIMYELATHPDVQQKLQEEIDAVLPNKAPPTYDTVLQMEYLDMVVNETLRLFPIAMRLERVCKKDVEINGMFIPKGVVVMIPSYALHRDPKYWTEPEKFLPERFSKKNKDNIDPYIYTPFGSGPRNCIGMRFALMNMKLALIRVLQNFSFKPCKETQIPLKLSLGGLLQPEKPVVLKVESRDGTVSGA
pIC50: −log10 of the molar value.
# maps each entry to its pIC50

{"columns": ["smiles entry", "target or system", "pIC50"],
 "data": [
  ["CC1(C(=O)NS(=O)(=O)c2ccc(Cl)s2)CCN(c2nc3c(cc2C#N)C(=O)OC3)CC1", "UniProtKB P08684", "< 4.30"],
  ["N#Cc1cc2c(nc1N1CCC(C(=O)NS(=O)(=O)c3ccc(Cl)s3)CC1)COC2=O", "UniProtKB P08684", "< 4.30"]
]}

====

organism: Homo sapiens; experiment: Antiplatelet activity in human platelet-rich plasma assessed as inhibition of ADP-induced platelet aggregation by aggregometry; format: functional
pIC50: −log10 of the molar value.
Returns one of 1.0 or 0.0; 1.0 when pIC50 is >= 5.

{"columns": ["compound", "label class"],
 "data": [
  ["N#Cc1cc2c(nc1N1CCC(C(=O)NS(=O)(=O)Cc3ccccc3)CC1)CCCC2=O", 0.0],
  ["N#Cc1cc2c(nc1N1CCC(C(=O)NS(=O)(=O)C3(c4ccccc4)CC3)CC1)COC2=O", 1.0],
  ["N#Cc1cc2c(nc1N1CCC(C(=O)NS(=O)(=O)Cc3ccccc3)CC1)CNC2=O", 0.0],
  ["N#Cc1cc2c(nc1N1CCC(F)(C(=O)NS(=O)(=O)Cc3ccc(Cl)cc3)CC1)COC2=O", 0.0],
  ["CC(c1ccccc1)S(=O)(=O)NC(=O)C1CCN(c2nc3c(cc2C#N)C(=O)OC3)CC1 (configuration not stated)", 1.0],
  ["CC1(C(=O)NS(=O)(=O)Cc2ccccc2)CCN(c2nc3c(cc2C#N)C(=O)OC3)CC1", 1.0],
  ["N#Cc1cc2c(nc1N1CCC(C(=O)NS(=O)(=O)Cc3ccc(Cl)cc3)CC1)COC2=O", 1.0],
  ["N#Cc1cc2c(nc1N1CCC(C(=O)NS(=O)(=O)Cc3ccc(F)cc3F)CC1)COC2=O", 1.0],
  ["N#Cc1cc2c(nc1N1CC(C(=O)NS(=O)(=O)c3ccc(Cl)s3)C1)COC2=O", 0.0],
  ["Cc1ccc(CS(=O)(=O)NC(=O)C2(C)CCN(c3nc4c(cc3C#N)C(=O)OC4)CC2)cc1", 1.0],
  ["CC1(C(=O)NS(=O)(=O)Cc2ccc(Cl)cc2)CCN(c2nc3c(cc2C#N)C(=O)OC3)CC1", 1.0],
  ["Cc1ccc(CS(=O)(=O)NC(=O)C2CCN(c3nc4c(cc3C#N)C(=O)OC4)CC2)cc1", 1.0],
  ["N#Cc1cc2c(nc1N1CCC(C(=O)NS(=O)(=O)Cc3ccccc3)CC1)CCC(F)C2=O (configuration not stated)", 0.0],
  ["N#Cc1cc2c(nc1N1CCC(C(=O)NS(=O)(=O)Cc3ccccc3F)CC1)COC2=O", 0.0],
  ["N#Cc1cc2c(nc1N1CCC(F)(C(=O)NS(=O)(=O)c3ccc(Cl)s3)CC1)COC2=O", 0.0],
  ["N#Cc1cc2c(nc1N1CCC(C(=O)NS(=O)(=O)Cc3ccccc3)CC1)COC2=O", 1.0],
  ["N#Cc1cc2c(nc1N1CCC(C(=O)NS(=O)(=O)Cc3ccc(F)cc3)CC1)COC2=O", 1.0],
  ["CC1(C(=O)NS(=O)(=O)Cc2ccc(F)cc2)CCN(c2nc3c(cc2C#N)C(=O)OC3)CC1", 0.0],
  ["N#Cc1cc2c(nc1N1CCC(C(=O)NS(=O)(=O)Cc3ccc(C(F)(F)F)cc3)CC1)COC2=O", 0.0],
  ["CN1Cc2nc(N3CCC(C(=O)NS(=O)(=O)Cc4ccccc4)CC3)c(C#N)cc2C1=O", 0.0],
  ["Cc1ccc(CS(=O)(=O)NC(=O)C2(F)CCN(c3nc4c(cc3C#N)C(=O)OC4)CC2)cc1", 0.0],
  ["N#Cc1cc2c(nc1N1CCC(C(=O)NS(=O)(=O)Cc3cccc(F)c3)CC1)COC2=O", 0.0],
  ["N#Cc1cc2c(nc1N1CCC(C(=O)NS(=O)(=O)Cc3ccccc3)C1)COC2=O (configuration not stated)", 0.0],
  ["CC1(C(=O)NS(=O)(=O)c2ccc(Cl)s2)CCN(c2nc3c(cc2C#N)C(=O)OC3)CC1", 1.0],
  ["CC1OC(=O)c2cc(C#N)c(N3CC(C(=O)NS(=O)(=O)Cc4ccccc4)C3)nc21 (configuration not stated)", 0.0],
  ["N#Cc1cc2c(nc1N1CCC(C(=O)NS(=O)(=O)Cc3ccccc3)CC1)CCOC2=O", 0.0],
  ["CC1OC(=O)c2cc(C#N)c(N3CCC(C(=O)NS(=O)(=O)c4ccc(Cl)s4)CC3)nc21 (configuration not stated)", 0.0],
  ["N#Cc1cc2c(nc1N1CCC(C(=O)NS(=O)(=O)c3ccc(Cl)s3)CC1)COC2=O", 1.0],
  ["N#Cc1cc2c(nc1N1CC(C(=O)NS(=O)(=O)Cc3ccccc3)C1)COC2=O", 0.0],
  ["CC1OC(=O)c2cc(C#N)c(N3CCC(C(=O)NS(=O)(=O)Cc4ccccc4)C3)nc21 (configuration not stated)", 0.0],
  ["N#Cc1cc2c(nc1N1CCC(C(=O)NS(=O)(=O)Cc3cc(Cl)cc(Cl)c3)CC1)COC2=O", 0.0],
  ["N#Cc1cc2c(nc1N1CCC(C(=O)NS(=O)(=O)Cc3ccccc3)CC1)CCC(Cl)C2=O (configuration not stated)", 0.0],
  ["CC1OC(=O)c2cc(C#N)c(N3CCC(C(=O)NS(=O)(=O)Cc4ccccc4)CC3)nc21 (configuration not stated)", 0.0],
  ["N#Cc1cc2c(nc1N1CCC(F)(C(=O)NS(=O)(=O)Cc3ccccc3)CC1)COC2=O", 1.0]
]}
